Target: T1, RBD of SARS-CoV-2 spike protein S1 (recombinant, construct not stated) (SARS-CoV-2, UniProt P0DTC2 328-533)
T1 construct: also called SARS-COV-2, RBD; RBD-AF647
Assay: ELISA, RBD coated, scFv titrated, anti-Flag HRP
Task for the reader: assign each of the following binders its reported pEC50.
Entry type: numeric. Quantity: pEC50, the -log10 of concentration in molar units.

Sure, the documented pEC50 for 2020EP61-A08 scFv (scFv) scFv: QVQLVQSGAEVKKPGASVKVSCKASGYTFTSYYMHWVRQAPGQGLEWMGIINPSGGSTSYAQKFQGRVTMTRDTSTSTVYMELSSLRSEDTAVYYCARESGNYYYDSSGYTFDYWGQGTLVTVSSGGGGSGGGGSGGGGSSYVLTQPLSVSVALGQTARITCGGNNIGSKNVHWYQQKPGQAPVLVIYYDSDRPSGIPERFSGSNSGNTATLTISGTQAMDEADYYCQAWDSSTVVFGGGTKLTVL is 8.60

Sure, the documented pEC50 for 2020EP53-D06 scFv (scFv) scFv: QVQLVQSGGGVVQPGRSLRLSCAASGFTFSSYAMHWVRQAPGKGLEWVAVISYDGSNKYYADSVKGRFTISRDNSKNTLYLQMNSLRAEDTAVYYCARDGEDGYNYISPFDYWGQGTLVTVSSGGGGSGGGGSGGGGSSYELTQPPSVSVAPGETARITCRGNDIGSKSVHWYQQKPGQAPVLVLYYDSDRPSGIPERFSGSNSGNTATLTISSVEAGDEADYYCQVWDIDVVFGGGTKLTVL is 9.09

Sure, the documented pEC50 for 2020EP64-C08 scFv (scFv) scFv: QMQLVQSGAEVKKPGSSVKVSCKASGGTFSSYAISWVRQAPRQGLEWMGRIIPILGIANYAQKFQGRVTITADKSTSTAYMELSSLRSEDTAVYYCASSYGGNQLWGQGTLVTVSSGGGGSGGGGSGGGGSQSVLTQPPSASGTPGQRVTISCSGSDSNIGTNTVNWYQQVPGTAPKVLIYSTHQRPSGVPDRFSASKSGTSASLAISGLQSEDEADYYCSSWDVSLNAWVFGGGTKVTVL is 8.06

Sure, the documented pEC50 for 2020EP54-E10 scFv (scFv, also called 2020EP054-E10) scFv: QVQLVQSGAEVRKPGSSVKVSCKASGGTFSSFAISWVRQAPGQGLEWMGGIIPIFDTATYAQNFQGRVRMTADESTNTAYMELSSLTSEDTAVYYCARSTSYYDSRGDYKVGDFDYWGQGTLVTVSSGGGGSGGGGSGGGGSAIRMTQSPSSLSASVGDRVTITCQASQDISNYLNWYQQKPGKAPKLLIYDASNLETGVPSRFSGSGSGTDFTFTISSLQPEDIATYYCQQYDNLPLTFGGGTKVEIK is 9.80

Just for reference, patent US20230220053A1 is where these values come from.
